Target: Urease (Canavalia ensiformis, UniProt P07374)
Sequence (P07374 whole entry): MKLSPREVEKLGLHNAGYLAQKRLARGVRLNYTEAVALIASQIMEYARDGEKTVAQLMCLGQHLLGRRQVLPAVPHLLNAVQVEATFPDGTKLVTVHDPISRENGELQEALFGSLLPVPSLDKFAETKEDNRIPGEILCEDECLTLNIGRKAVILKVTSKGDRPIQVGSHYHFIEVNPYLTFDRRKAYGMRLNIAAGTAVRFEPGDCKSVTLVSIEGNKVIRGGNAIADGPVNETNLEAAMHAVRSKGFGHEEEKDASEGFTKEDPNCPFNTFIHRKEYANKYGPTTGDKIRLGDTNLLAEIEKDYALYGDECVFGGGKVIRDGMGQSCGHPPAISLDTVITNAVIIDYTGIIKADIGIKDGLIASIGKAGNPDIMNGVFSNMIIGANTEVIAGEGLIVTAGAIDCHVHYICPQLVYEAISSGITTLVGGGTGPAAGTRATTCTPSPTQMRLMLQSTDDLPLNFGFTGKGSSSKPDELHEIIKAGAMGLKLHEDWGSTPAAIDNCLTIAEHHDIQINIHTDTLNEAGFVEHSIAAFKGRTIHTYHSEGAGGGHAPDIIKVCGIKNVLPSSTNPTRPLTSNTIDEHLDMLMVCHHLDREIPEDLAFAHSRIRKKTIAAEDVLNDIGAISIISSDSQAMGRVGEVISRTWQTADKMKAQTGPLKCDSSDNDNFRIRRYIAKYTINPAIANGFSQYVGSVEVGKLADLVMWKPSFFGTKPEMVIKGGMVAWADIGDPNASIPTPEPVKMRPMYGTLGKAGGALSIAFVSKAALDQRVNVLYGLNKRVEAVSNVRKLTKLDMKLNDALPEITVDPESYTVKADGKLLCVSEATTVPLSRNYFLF
Assay: Inhibition of jack bean urease assessed as reduction in ammonia production incubated at 30 degC for 15 mins by indophenol method
Starred links: 1 amine or outer side, 2 acyl side, 3 side chain; linkers in the order of their positions; H or OH if unused. Residues, ends and D or L forms follow the SMILES beside them. *: point of attachment. Thiocarbamoyl(4-MeOPh) = COc1ccc(NC(=S)*)cc1; Thiocarbamoyl(N-2-FPh) = Fc1ccccc1NC(=S)*; NH(4-MeO-phenyl) = COc1ccc(N*)cc1; X1 = c1ccc2c(N3CCN(*)CC3)nsc2c1; NH(2-F-phenyl) = Fc1ccccc1N*; NH(3-MeOPh) = COc1cccc(N*)c1; X4 = COc1cccc(NC(=S)*)c1; Boc = CC(C)(C)OC(=O)*; CO = O=C([*:1])[*:2]
assay readout: log10 IC50 (log10 of the value in µM)
Friendly reminder: values = log10 of IC50, unit µM.

Solved cases (5 shown):
[
  {
    "compound": "COc1cccc(NC(=S)NCC(=O)N[C@@H](Cc2ccccc2)C(=O)NCC(=O)N[C@H](C(=O)N2CCC[C@H]2C(=O)N2CCN(c3nsc4ccccc34)CC2)C(C)C)c1 (X4-GFGVP-X1)",
    "measured target": "Urease (Canavalia ensiformis, UniProt P07374)",
    "log10 IC50": 1.28
  },
  {
    "compound": "CC(C)[C@H](NC(=O)CNC(=S)Nc1ccccc1F)C(=O)NCC(=O)N[C@H](C(=O)N1CCC[C@H]1C(=O)N1CCN(c2nsc3ccccc23)CC1)C(C)C ({Thiocarbamoyl(N-2-FPh)}-GVGVP-X1)",
    "measured target": "Urease (Canavalia ensiformis, UniProt P07374)",
    "log10 IC50": 1.60
  },
  {
    "compound": "COc1ccc(NC(=S)NCC(=O)N[C@H](C(=O)NCC(=O)N[C@H](C(=O)N2CCC[C@H]2C(=O)N2CCN(c3nsc4ccccc34)CC2)C(C)C)C(C)C)cc1 ({Thiocarbamoyl(4-MeOPh)}-GVGVP-X1)",
    "measured target": "Urease (Canavalia ensiformis, UniProt P07374)",
    "log10 IC50": 1.26
  },
  {
    "compound": "CC(C)[C@H](NC(=O)CNC(=O)Nc1ccccc1F)C(=O)NCC(=O)N[C@H](C(=O)N1CCC[C@H]1C(=O)N1CCN(c2nsc3ccccc23)CC1)C(C)C ({NH(2-F-phenyl)-CO}-GVGVP-X1)",
    "measured target": "Urease (Canavalia ensiformis, UniProt P07374)",
    "log10 IC50": 1.62
  },
  {
    "compound": "COc1ccc(NC(=O)NCC(=O)N[C@@H](Cc2ccccc2)C(=O)NCC(=O)N[C@H](C(=O)N2CCC[C@H]2C(=O)N2CCN(c3nsc4ccccc34)CC2)C(C)C)cc1 ({NH(4-MeO-phenyl)-CO}-GFGVP-X1)",
    "measured target": "Urease (Canavalia ensiformis, UniProt P07374)",
    "log10 IC50": 1.23
  }
]

Provide reported log10 IC50 for each item, in the same order as listed.
1. CC(C)[C@H](NC(=O)CNC(=O)[C@H](Cc1ccccc1)NC(=O)CNC(=S)Nc1ccccc1F)C(=O)N1CCC[C@H]1C(=O)N1CCN(c2nsc3ccccc23)CC1 ({Thiocarbamoyl(N-2-FPh)}-GFGVP-X1)
2. COc1cccc(NC(=O)NCC(=O)N[C@H](C(=O)NCC(=O)N[C@H](C(=O)N2CCC[C@H]2C(=O)N2CCN(c3nsc4ccccc34)CC2)C(C)C)C(C)C)c1 ({NH(3-MeOPh)-CO}-GVGVP-X1)
3. COc1cccc(NC(=O)NCC(=O)N[C@@H](Cc2ccccc2)C(=O)NCC(=O)N[C@H](C(=O)N2CCC[C@H]2C(=O)N2CCN(c3nsc4ccccc34)CC2)C(C)C)c1 ({NH(3-MeOPh)-CO}-GFGVP-X1)

[1.58, 1.40, 1.36]

Provide reported log10 IC50 for each item, in the same order as listed.
1. COc1ccc(NC(=S)NCC(=O)N[C@@H](Cc2ccccc2)C(=O)NCC(=O)N[C@H](C(=O)N2CCC[C@H]2C(=O)N2CCN(c3nsc4ccccc34)CC2)C(C)C)cc1 ({Thiocarbamoyl(4-MeOPh)}-GFGVP-X1)
2. CC(C)[C@H](NC(=O)CNC(=O)OC(C)(C)C)C(=O)NCC(=O)N[C@H](C(=O)N1CCC[C@H]1C(=O)N1CCN(c2nsc3ccccc23)CC1)C(C)C (Boc-GVGVP-X1)

1.18
2.47
